This section presents compounds with their documented EC50 values.
Target: human PPAR γ 2 (Homo sapiens, UniProt P37231)
Assay: PPAR γ transcriptional activity, luciferase reporter, test compound alone
Conditions: concentration indicating Emax/2, MG63 cells transfected with pSG5-hPPARg and pGV-P2-PPRE, 24 hr

In [3]: df
Out[3]:
                               smiles_entry  result
0  CN(C)c1cccc(NC(=O)c2cc([N+](=O)[O-])ccc2Cl)c1   11 nM
1  COc1ccc(NC(=O)c2cc([N+](=O)[O-])ccc2Cl)cc1-c1ccccc1   34 nM
2  O=C(Nc1nc(-c2cccc3ccccc23)cs1)c1cc([N+](=O)[O-])ccc1Cl   11 nM
3  O=C(Nc1cccc2nsnc12)c1cc([N+](=O)[O-])ccc1Cl   11 nM
4  O=C(Nc1ccc(NC(=O)c2cc([N+](=O)[O-])ccc2Cl)cc1)c1ccccc1   21 nM

Next up:
Request the reported EC50 associated with `O=C(Nc1ccc(S(=O)(=O)Nc2ccc(Cl)nn2)cc1)c1cc([N+](=O)[O-])ccc1Cl` 43 nM

====

Molecular target: human PPAR γ 2 (Homo sapiens)
Sequence (P37231 1-505): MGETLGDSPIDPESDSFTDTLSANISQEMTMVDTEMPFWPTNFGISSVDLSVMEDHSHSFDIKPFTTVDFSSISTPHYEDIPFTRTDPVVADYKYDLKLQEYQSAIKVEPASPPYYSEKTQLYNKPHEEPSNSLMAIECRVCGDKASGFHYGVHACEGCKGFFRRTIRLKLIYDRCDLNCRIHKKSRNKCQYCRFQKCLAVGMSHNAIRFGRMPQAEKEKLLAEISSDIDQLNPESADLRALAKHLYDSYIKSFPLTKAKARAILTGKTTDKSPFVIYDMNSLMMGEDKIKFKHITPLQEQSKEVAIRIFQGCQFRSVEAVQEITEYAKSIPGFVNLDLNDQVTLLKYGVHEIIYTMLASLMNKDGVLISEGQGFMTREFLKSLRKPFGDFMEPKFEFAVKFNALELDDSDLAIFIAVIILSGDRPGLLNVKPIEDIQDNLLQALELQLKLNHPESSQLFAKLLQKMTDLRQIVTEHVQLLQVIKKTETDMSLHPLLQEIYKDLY
Assay: Inhibitory activity against PPAR γ transcription in the presence of agonist compound A, luciferase reporter
Details: in the presence of 10 nM compound A (agonist); MG63 cells transfected with pSG5-hPPARg and pGV-P2-PPRE; 24 hr
Binarize IC50 at 30 nM; below is t, at or above is f.

Here are 5 molecules together with their reported answers.
                                   molecule                         system  group_label
0  O=C(NCCc1ccc(NC(=O)c2cc([N+](=O)[O-])ccc2Cl)cc1)Nc1ccccc1  human PPAR γ 2 (Homo sapiens)            t
1  O=C(Nc1ccc(NC(=O)c2cc([N+](=O)[O-])ccc2Cl)cc1)c1ccncc1  human PPAR γ 2 (Homo sapiens)            f
2  O=C(Nc1cccc(-c2ccccc2)c1)c1cc([N+](=O)[O-])ccc1Cl  human PPAR γ 2 (Homo sapiens)            f
3  O=C(Nc1ccc(-c2ccccc2)cc1)c1cc([N+](=O)[O-])ccc1Cl  human PPAR γ 2 (Homo sapiens)            t
4  Cc1cccc(-c2csc(NC(=O)c3cc([N+](=O)[O-])ccc3Cl)n2)c1  human PPAR γ 2 (Homo sapiens)            f

--- query ---
Regarding `CC(C)(C)OC(=O)Nc1ccc(-c2csc(NC(=O)c3cc([N+](=O)[O-])ccc3Cl)n2)cc1` , kindly confirm whether its IC50 is beneath 30 nM. f
